system: SW 900; experiment: relative viability (nuclei count vs DMSO), 5 days (fraction); higher = more cells survive; conditions: first compound 0.08 µM
Each entry below carries its reported relative viability.
PARAMETER MEASURED: relative viability

COMPOUND	RESULT
O=c1[nH]c2ccccc2n1C1CCN(CCCC(c2ccc(F)cc2)c2ccc(F)cc2)CC1 [Pimozide] + COc1cccc2cc(-c3nc([C@H]4CC[C@H](C(=O)O)CC4)n4ncnc(N)c34)[nH]c12 [OSI-027] (partner 0.5 µM)	0.879
O=c1[nH]c2ccccc2n1C1CCN(CCCC(c2ccc(F)cc2)c2ccc(F)cc2)CC1 [Pimozide] + Nc1ncn([C@H]2C[C@H](O)[C@@H](CO)O2)c(=O)n1 [Decitabine] (partner 2 µM)	0.451
O=c1[nH]c2ccccc2n1C1CCN(CCCC(c2ccc(F)cc2)c2ccc(F)cc2)CC1 [Pimozide] + CCNC(=O)c1noc(-c2cc(C(C)C)c(O)cc2O)c1-c1ccc(CN2CCOCC2)cc1 [Luminespib] (partner 0.01 µM)	0.163
Cc1cnc(-c2cnc(NCCNc3ccc(C#N)cn3)nc2-c2ccc(Cl)cc2Cl)[nH]1 + Nc1ncn([C@H]2C[C@H](O)[C@@H](CO)O2)c(=O)n1 [Decitabine] (partner 2 µM)	0.523
Cc1cnc(-c2cnc(NCCNc3ccc(C#N)cn3)nc2-c2ccc(Cl)cc2Cl)[nH]1 + COc1cc2c(Oc3ccc(NC(=O)C4(C(=O)Nc5ccc(F)cc5)CC4)cc3F)ccnc2cc1OCCCN1CCOCC1 [Foretinib] (partner 0.25 µM)	0.781
O=c1[nH]c2ccccc2n1C1CCN(CCCC(c2ccc(F)cc2)c2ccc(F)cc2)CC1 [Pimozide] + Cc1cc(Nc2cc(N3CCN(C)CC3)nc(Sc3ccc(NC(=O)C4CC4)cc3)n2)n[nH]1 [Tozasertib] (partner 0.1 µM)	0.633
Cc1cnc(-c2cnc(NCCNc3ccc(C#N)cn3)nc2-c2ccc(Cl)cc2Cl)[nH]1 + Cc1nc(Nc2ncc(C(=O)Nc3c(C)cccc3Cl)s2)cc(N2CCN(CCO)CC2)n1 [Dasatinib] (partner 0.075 µM)	0.64
Cc1cnc(-c2cnc(NCCNc3ccc(C#N)cn3)nc2-c2ccc(Cl)cc2Cl)[nH]1 + CC(=O)c1c(C)c2cnc(Nc3ccc(N4CCNCC4)cn3)nc2n(C2CCCC2)c1=O [Palbociclib] (partner 0.5 µM)	0.565
O=c1[nH]c2ccccc2n1C1CCN(CCCC(c2ccc(F)cc2)c2ccc(F)cc2)CC1 [Pimozide] + Nc1nc2[nH]cc(CCc3ccc(C(=O)N[C@@H](CCC(=O)O)C(=O)O)cc3)c2c(=O)[nH]1 [Pemetrexed] (partner 0.2 µM)	0.483
Cc1cnc(-c2cnc(NCCNc3ccc(C#N)cn3)nc2-c2ccc(Cl)cc2Cl)[nH]1 + O=C(c1cc(Cc2n[nH]c(=O)c3ccccc23)ccc1F)N1CCN(C(=O)C2CC2)CC1 [Olaparib] (partner 8 µM)	0.827

###

Attribute: relative viability
test system: NCI-H1944; assay: relative viability (nuclei count vs DMSO), 5 days (fraction); higher = more cells survive; settings: first compound 0.8 µM

MOLECULE	relative viability
Cc1cnc(-c2cnc(NCCNc3ccc(C#N)cn3)nc2-c2ccc(Cl)cc2Cl)[nH]1 + COc1cc2c(Oc3ccc(NC(=O)C4(C(=O)Nc5ccc(F)cc5)CC4)cc3F)ccnc2cc1OCCCN1CCOCC1 [Foretinib] (partner 0.25 µM)	0.902
O=c1[nH]c2ccccc2n1C1CCN(CCCC(c2ccc(F)cc2)c2ccc(F)cc2)CC1 [Pimozide] + Cc1cc(Nc2cc(N3CCN(C)CC3)nc(Sc3ccc(NC(=O)C4CC4)cc3)n2)n[nH]1 [Tozasertib] (partner 0.1 µM)	0.242

###

tested on: SW 1573; experiment: relative viability (nuclei count vs DMSO), 5 days (fraction); higher = more cells survive; conditions: first compound 15.81 µM

COMPOUND	relative viability
O=C(O)CCCCC(CCSCc1ccccc1)SCc1ccccc1 (stereo not drawn) [CPI-613] + CC(=O)c1c(C)c2cnc(Nc3ccc(N4CCNCC4)cn3)nc2n(C2CCCC2)c1=O [Palbociclib] (partner 0.5 µM)	0.579
O=C(O)CCCCC(CCSCc1ccccc1)SCc1ccccc1 (stereo not drawn) [CPI-613] + Cc1cc(Nc2cc(N3CCN(C)CC3)nc(Sc3ccc(NC(=O)C4CC4)cc3)n2)n[nH]1 [Tozasertib] (partner 0.1 µM)	0.196
O=C(O)CCCCC(CCSCc1ccccc1)SCc1ccccc1 (stereo not drawn) [CPI-613] + Nc1nc2[nH]cc(CCc3ccc(C(=O)N[C@@H](CCC(=O)O)C(=O)O)cc3)c2c(=O)[nH]1 [Pemetrexed] (partner 0.2 µM)	0.777

###

system: NCI-H1623; assay: relative viability (nuclei count vs DMSO), 5 days (fraction); higher = more cells survive; conditions: first compound 2.53 µM
// classify: if (relative viability < 0.6) 1.0 else 0.0

MOLECULE	LABEL CLASS
Cc1cnc(-c2cnc(NCCNc3ccc(C#N)cn3)nc2-c2ccc(Cl)cc2Cl)[nH]1 + CCNC(=O)c1noc(-c2cc(C(C)C)c(O)cc2O)c1-c1ccc(CN2CCOCC2)cc1 [Luminespib] (partner 0.01 µM)	1.0
Cc1cnc(-c2cnc(NCCNc3ccc(C#N)cn3)nc2-c2ccc(Cl)cc2Cl)[nH]1 + Cc1nc(Nc2ncc(C(=O)Nc3c(C)cccc3Cl)s2)cc(N2CCN(CCO)CC2)n1 [Dasatinib] (partner 0.075 µM)	1.0
O=c1[nH]c2ccccc2n1C1CCN(CCCC(c2ccc(F)cc2)c2ccc(F)cc2)CC1 [Pimozide] + COc1cc2c(Oc3ccc(NC(=O)C4(C(=O)Nc5ccc(F)cc5)CC4)cc3F)ccnc2cc1OCCCN1CCOCC1 [Foretinib] (partner 0.25 µM)	0.0

###

Each item that follows carries a reported relative viability.
system: RERF-LC-KJ; experiment: relative viability (nuclei count vs DMSO), 5 days (fraction); higher = more cells survive; details: first compound 0.1581 µM
PARAMETER MEASURED: relative viability

MOLECULE	SYSTEM	PARAMETER MEASURED	RESULT
Nc1ccn([C@@H]2O[C@H](CO)[C@@H](O)[C@@H]2O)c(=O)n1 [Cytarabine] + O=C(c1cc(Cc2n[nH]c(=O)c3ccccc23)ccc1F)N1CCN(C(=O)C2CC2)CC1 [Olaparib] (partner 8 µM)	RERF-LC-KJ	relative viability	0.459
COc1cc2nccc(Oc3ccc(NC(=O)Nc4cc(C)on4)c(Cl)c3)c2cc1OC [Tivozanib] + CC1(C)CCC(c2ccc(Cl)cc2)=C(CN2CCN(c3ccc(C(=O)NS(=O)(=O)c4ccc(N[C@H](CCN5CCOCC5)CSc5ccccc5)c(S(=O)(=O)C(F)(F)F)c4)cc3)CC2)C1 [Navitoclax] (partner 0.5 µM)	RERF-LC-KJ	relative viability	1.37
COc1cc2nccc(Oc3ccc(NC(=O)Nc4cc(C)on4)c(Cl)c3)c2cc1OC [Tivozanib] + O=C(CCCCCCC(=O)Nc1ccccc1)NO [Vorinostat] (partner 1 µM)	RERF-LC-KJ	relative viability	0.58
COc1cc2nccc(Oc3ccc(NC(=O)Nc4cc(C)on4)c(Cl)c3)c2cc1OC [Tivozanib] + Nc1ncn([C@H]2C[C@H](O)[C@@H](CO)O2)c(=O)n1 [Decitabine] (partner 2 µM)	RERF-LC-KJ	relative viability	0.637

###

system: NCI-H23; test: relative viability (nuclei count vs DMSO), 5 days (fraction); higher = more cells survive; details: first compound 0.1265 µM
Catalogue of molecules with associated relative viability
PARAMETER MEASURED: relative viability

MOLECULE	SYSTEM	PARAMETER MEASURED	RESULT
Cc1sc2c(c1C)C(c1ccc(Cl)cc1)=N[C@@H](CC(=O)OC(C)(C)C)c1nnc(C)n1-2 [JQ1] + Cc1cc(Nc2cc(N3CCN(C)CC3)nc(Sc3ccc(NC(=O)C4CC4)cc3)n2)n[nH]1 [Tozasertib] (partner 0.1 µM)	NCI-H23	relative viability	0.253
Cc1sc2c(c1C)C(c1ccc(Cl)cc1)=N[C@@H](CC(=O)OC(C)(C)C)c1nnc(C)n1-2 [JQ1] + CS(=O)(=O)CCNCc1ccc(-c2ccc3ncnc(Nc4ccc(OCc5cccc(F)c5)c(Cl)c4)c3c2)o1 [Lapatinib] (partner 2 µM)	NCI-H23	relative viability	0.943

###

system: LU99A; assay: relative viability (nuclei count vs DMSO), 5 days (fraction); higher = more cells survive; details: first compound 0.01581 µM

MOLECULE	SYSTEM	relative viability
Nc1ccn([C@@H]2O[C@H](CO)[C@@H](O)[C@@H]2O)c(=O)n1 [Cytarabine] + CS(=O)(=O)N1CCN(Cc2cc3nc(-c4cccc5[nH]ncc45)nc(N4CCOCC4)c3s2)CC1 [Pictilisib] (partner 1 µM)	LU99A	0.305
Nc1ccn([C@@H]2O[C@H](CO)[C@@H](O)[C@@H]2O)c(=O)n1 [Cytarabine] + N=C(N)NC(=N)NCCc1ccccc1 [Phenformin] (partner 250 µM)	LU99A	0.747
Nc1ccn([C@@H]2O[C@H](CO)[C@@H](O)[C@@H]2O)c(=O)n1 [Cytarabine] + CC(=O)Nc1cccc(-n2c(=O)n(C3CC3)c(=O)c3c(Nc4ccc(I)cc4F)n(C)c(=O)c(C)c32)c1 [Trametinib] (partner 0.02 µM)	LU99A	0.447
COc1cc2nccc(Oc3ccc(NC(=O)Nc4cc(C)on4)c(Cl)c3)c2cc1OC [Tivozanib] + CC1(C)CCC(c2ccc(Cl)cc2)=C(CN2CCN(c3ccc(C(=O)NS(=O)(=O)c4ccc(N[C@H](CCN5CCOCC5)CSc5ccccc5)c(S(=O)(=O)C(F)(F)F)c4)cc3)CC2)C1 [Navitoclax] (partner 0.5 µM)	LU99A	0.749
